Biological target: human RORγ (Homo sapiens)
Construct: human RORγ, from Ser253 to Lys518; expressed in transfected cells; host or cells: CHO cells (Chinese hamster ovary), transient co-transfection with pG5-Luc
Sequence (P51449 253-518): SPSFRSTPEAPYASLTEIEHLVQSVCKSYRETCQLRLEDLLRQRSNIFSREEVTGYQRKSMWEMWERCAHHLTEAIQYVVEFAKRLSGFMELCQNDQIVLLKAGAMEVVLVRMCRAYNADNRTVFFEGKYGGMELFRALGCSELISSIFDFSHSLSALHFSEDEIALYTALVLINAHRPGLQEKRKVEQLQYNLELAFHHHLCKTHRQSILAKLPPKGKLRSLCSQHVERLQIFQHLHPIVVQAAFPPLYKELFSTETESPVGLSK
Assay: In vitro assay of inhibitory effect against RORγ transcriptional activity (GAL4-hRORγ LBD luciferase reporter gene assay in CHO cells)
Type: cell-based
Details: GAL4-hRORγ LBD / pG5-Luc in CHO cells, 2 days incubation
pEC50: −log10 of the molar value.
OBSERVATION_TYPE: pEC50

A: CC(C)C1=CN(CC(=O)O)C(=O)N[C@@]1(C)c1ccc(CCC(C)(C)C)c(Cl)c1 [Example 94]
B: CC(C)C1=CN(CCCCC(=O)O)C(=O)NC1(C)c1ccc(OCC(C)(C)C)c(Cl)c1 (racemic) [Example 18]
C: CC(C)(C)CCc1ccc([C@@]2(C)NC(=O)N([C@H]3C[C@H](C(=O)O)C3)C=C2C2CCOCC2)cc1Cl [Example 99]
D: CC(C)(C)COc1ccc(C2NC(=O)N(CCCC(=O)O)C=C2C(C)(C)C)cc1Cl (racemic) [Example 1]
Rank the listed compounds by pEC50, largest first. Order the labels as requested and list them.
B, D, A, C
(B: 7.29, D: 7.06, A: 6.82, C: 5.82)

a: CC(C)Cc1ccc(C2(C)NC(=O)N(CCCC(=O)O)C=C2C(C)C)cc1 (racemic) [Example 106]
b: CC(C)C1=CN(CCC(=O)O)C(=O)N[C@@]1(C)c1ccc(C2CC3(CCC3)C2)c(Cl)c1 [Example 173]
Just curious, which one has the larger pEC50 reading, a or b ? Refer to your chosen item by its label in the answer.
b

====

target: human RORγ (Homo sapiens, UniProt P51449); construct: human RORγ, from Ser253 to Lys518; expressed in transfected cells; host or cells: CHO cells (Chinese hamster ovary), transient co-transfection with pG5-Luc; assay: In vitro assay of inhibitory effect against RORγ transcriptional activity (GAL4-hRORγ LBD luciferase reporter gene assay in CHO cells); format: cell-based; conditions: GAL4-hRORγ LBD luciferase reporter, CHO cells; read-out: LUC EC50 hRORγ
OBSERVATION_TYPE: EC50 (nM)

a: CC(C)C1=CN(CCC(=O)O)C(=O)N[C@@]1(C)c1ccc(CCC(C)(C)CO)c(Cl)c1
b: CC(C)C1=CN(CCC(=O)O)C(=O)N[C@@]1(C)c1ccc(CCC(C)(C)C)c(C(F)(F)F)c1
Just curious, which one has the larger EC50 reading, a or b ? Refer to your chosen item by its label in the answer.
a

====

target: mouse RORγ (Mus musculus, UniProt P51450); construct: mouse RORγ, from Ile251 to Lys516; expressed in transfected cells; host or cells: CHO cells (Chinese hamster ovary), transient co-transfection with pG5-Luc; experiment: In vitro assay of inhibitory effect against RORγ transcriptional activity (GAL4-mRORγ LBD luciferase reporter gene assay in CHO cells); type: cell-based; settings: GAL4-mRORγ LBD / pG5-Luc in CHO cells, 2 days incubation
Sequence (P51450 251-516): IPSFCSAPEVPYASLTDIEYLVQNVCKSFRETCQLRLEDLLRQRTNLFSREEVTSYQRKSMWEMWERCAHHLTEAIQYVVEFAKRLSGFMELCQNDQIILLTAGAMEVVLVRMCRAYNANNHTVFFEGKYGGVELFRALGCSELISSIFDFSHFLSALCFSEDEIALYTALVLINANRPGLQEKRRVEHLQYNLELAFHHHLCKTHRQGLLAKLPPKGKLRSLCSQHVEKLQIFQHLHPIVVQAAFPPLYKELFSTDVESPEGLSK
pEC50: −log10 of the molar value.
OBSERVATION_TYPE: pEC50

Previously resolved entries follow.
compound="CCCC(CCC)Cc1ccc([C@]2(C)NC(=O)N(CCC(=O)O)C=C2C(C)C)cc1Cl [Example 178]" recorded_measurement=7.68
compound="CC(C)C1=CN(CCC(=O)O)C(=O)N[C@@]1(C)c1ccc(OCC(C)(C)C)c(Cl)c1 [Example 126]" recorded_measurement=7.57
compound="CC(C)CCC1=CN(CCCC(=O)O)C(=O)N[C@]1(C)c1ccc(CCC(C)(C)C)c(Cl)c1 [Example 43]" recorded_measurement=6.08
compound="CC(C)C1=CN([C@H]2C[C@](C)(C(=O)O)C2)C(=O)N[C@]1(C)c1ccc(CCC(C)(C)C)c(Cl)c1 [Example 111]" recorded_measurement=6.32
compound="CC(C)(C)CCc1ccc([C@]2(C)NC(=O)N(CCCC(=O)O)C=C2C2CCC2)cc1Cl [Example 59]" recorded_measurement=7.70

A: CC(C)C1=CN(CCC(=O)O)C(=O)N[C@@]1(C)c1ccc(C2CCC(C)(C)CC2)c(Cl)c1 [Example 118]
B: CC(C)C1=CN(CCCC(=O)O)C(=O)NC1(C)c1ccc(OCCC(F)(F)F)cc1 (racemic) [Example 105]
C: CC(C)(C)COc1ccc(C2NC(=O)NC=C2C(C)(C)CC(=O)O)cc1Cl (racemic) [Example 4]
I would appreciate it if you could sort these 3 compounds by pEC50, starting from the smallest number. Order the labels as requested and list them.
B, C, A
(B: 5.77, C: 6.17, A: 7.77)

1: CC(C)(C)CCc1ccc(C2(C)NC(=O)N(C3CCC3)C=C2C(C)(C)CCC(=O)O)cc1Cl (single isomer, unassigned) [Example 184]
2: CC(C)C1=CN(CCCC(=O)O)C(=O)NC1(C)c1ccc(CCC(C)(C)C)cc1 (racemic) [Example 26]
Form: Entry with minimum pEC50 (choose one): 1 / 2 Refer to your chosen item by its label in the answer.
2

a: CCC1=CN(CCCC(=O)O)C(=O)N[C@]1(C)c1ccc(CCC(C)(C)C)c(Cl)c1 [Example 68]
b: CC(C)(C)CCc1ccc([C@@]2(C)NC(=O)N(CCCC(=O)O)C=C2C2CC2)cc1Cl [Example 56]
c: CC(C)C1=CN(CCc2ccc(C(=O)O)cc2)C(=O)N[C@@]1(C)c1ccc(CCC(C)(C)C)c(Cl)c1 [Example 50]
I would appreciate it if you could sort these 3 compounds by pEC50, starting from the smallest number. Order the labels as requested and list them.
b, a, c
